Molecular target: KRAS G12C (Homo sapiens, UniProt P01116+P62937, G12C)
Sequence (P01116 1-169 isoform P01116-2 G12C): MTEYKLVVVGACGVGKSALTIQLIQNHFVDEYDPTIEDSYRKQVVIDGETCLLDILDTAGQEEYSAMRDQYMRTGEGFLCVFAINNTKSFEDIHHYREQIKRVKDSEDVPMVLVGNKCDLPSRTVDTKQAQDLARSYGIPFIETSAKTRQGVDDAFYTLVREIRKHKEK
Sequence (P62937 whole entry): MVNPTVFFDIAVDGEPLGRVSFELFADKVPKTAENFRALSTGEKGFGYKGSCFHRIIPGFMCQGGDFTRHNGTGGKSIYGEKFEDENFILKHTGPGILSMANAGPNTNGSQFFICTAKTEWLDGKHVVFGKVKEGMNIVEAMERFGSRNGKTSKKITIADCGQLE
Experiment: Disruption of BRAF RBD interaction with Ras (FRET / MOA assay, with Cyclophilin A)
Type: biochemical
Conditions: read-out: KRAS G12C FRET data, IC50
Assay endpoint: IC50

CCn1c(-c2cccnc2[C@H](C)OC)c2c3cc(ccc31)-c1cc(C#N)cc(c1)C[C@H](NC(=O)[C@H](C(C)C)N(C)C(C)=O)C(=O)N1CCC[C@H](N1)C(=O)OCC(C)(C)C2 (atropisomer, axis not shown)    > 10000 nM
CCn1c(-c2cccnc2[C@H](C)OC)c2c3cc(ccc31)-c1csc(n1)C[C@H](NC(=O)[C@H](C(C)C)N(C)C(=O)[C@H]1CCN(C(=O)CNC)C1)C(=O)N1CCC[C@H](N1)C(=O)OCC(C)(C)C2    100 to 1000 nM
CCn1c(-c2cccnc2[C@H](C)OC)c2c3cc(ccc31)-c1cc(O)cc(c1)C[C@H](NC(=O)[C@H](C(C)C)N(C)C(=O)[C@H]1CCN(C)C1)C(=O)N1CCC[C@H](N1)C(=O)OCC(C)(C)C2    10 to 100 nM

IC50 for CCn1c(-c2cccnc2[C@H](C)OC)c2c3cc(ccc31)-c1csc(n1)C[C@H](NC(=O)[C@H](C(C)C)N(C)C(=O)N1CC(S(=O)(=O)NC)C1)C(=O)N1CCC[C@H](N1)C(=O)OCC(C)(C)C2 (atropisomer, axis not shown) is 10 to 100 nM

Data provenance: patent US20230233569A1
